# experimentSummary: Cytotoxicity against mouse RAW264.7 cells assessed as inhibition of cell viability at 20 uM after 24 hrs by MTT assay
# Type: cell-based
# conditionInfo: read-out: INH
Each item that follows carries a reported cytotoxicity at 24 h, 20 µM.
valueType: cytotoxicity at 24 h, 20 µM (%)

>>> reportedvalue("CC1(C)CC[C@]2(C(=O)NCCN3CCCCC3)CC[C@]3(C)C(=CC[C@@H]4[C@@]5(C)Cc6cn(S(=O)(=O)c7ccc(Br)cc7)nc6C(C)(C)[C@@H]5CC[C@]43C)[C@@H]2C1")
70.8
>>> reportedvalue("COc1ccc(S(=O)(=O)n2cc3c(n2)C(C)(C)[C@@H]2CC[C@]4(C)[C@H](CC=C5[C@@H]6CC(C)(C)CC[C@]6(C(=O)NC6CCN(Cc7ccccc7)CC6)CC[C@]54C)[C@@]2(C)C3)cc1")
58.2
>>> reportedvalue("COc1ccc(S(=O)(=O)n2cc3c(n2)C(C)(C)[C@@H]2CC[C@]4(C)[C@H](CC=C5[C@@H]6CC(C)(C)CC[C@]6(C(=O)NCCN6CCCCC6)CC[C@]54C)[C@@]2(C)C3)cc1OC")
71.1
>>> reportedvalue("COc1ccc(S(=O)(=O)n2cc3c(n2)C(C)(C)[C@@H]2CC[C@]4(C)[C@H](CC=C5[C@@H]6CC(C)(C)CC[C@]6(C(=O)NC6CCN(Cc7ccccc7)CC6)CC[C@]54C)[C@@]2(C)C3)cc1OC")
0
>>> reportedvalue("CC1(C)CC[C@]2(C(=O)NCCN3CCCCC3)CC[C@]3(C)C(=CC[C@@H]4[C@@]5(C)Cc6c[nH]nc6C(C)(C)[C@@H]5CC[C@]43C)[C@@H]2C1")
0
